The following binders are listed with their measured binding signal values.
Target: T1, RBFOX1 RRM (Homo sapiens, UniProt Q9NWB1 109-208)
T1 sequence: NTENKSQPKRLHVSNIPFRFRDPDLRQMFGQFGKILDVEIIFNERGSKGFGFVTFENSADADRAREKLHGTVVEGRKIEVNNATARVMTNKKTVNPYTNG
Test: EMSA; HiTS-Eq, 1 nM pool, 10 min; buffer printed only for the single-RNA assays: 10 mM Tris pH 7.5, 150 mM NaCl, 3.4 mM EDTA, 0.001% NP-40, 30 C
Settings: tags: His6 N-terminal (pET28a); label: 5' 32P
In all, about 16,000 sequences were measured (“ka relative to ugcaugu”: median about 0.0091, highest 2% from about 0.032 on). The sample as a whole holds a higher share of the highest values than the screen did.

# example entries with known answers
Binder	binding signal
AUGCUGC (DNA:RNA) RNA: GGGAGACCGGAAUUCAGAUUGUCCAUGCUGCUUAAAUCCCGUCGUAGCCACCA DNA 1: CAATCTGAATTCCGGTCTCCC DNA 2: TGGTGGCTACGACGGGATT	0.00746 KA relative to UGCAUGU
ACCAUGC (DNA:RNA) RNA: GGGAGACCGGAAUUCAGAUUGUCCACCAUGCUUAAAUCCCGUCGUAGCCACCA DNA 1: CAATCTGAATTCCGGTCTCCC DNA 2: TGGTGGCTACGACGGGATT	0.00513 KA relative to UGCAUGU
AGCAUUG (DNA:RNA) RNA: GGGAGACCGGAAUUCAGAUUGUCCAGCAUUGUUAAAUCCCGUCGUAGCCACCA DNA 1: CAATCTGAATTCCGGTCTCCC DNA 2: TGGTGGCTACGACGGGATT	0.0104 KA relative to UGCAUGU

input: Any idea what its binding signal is? The binder is CAGCAUA (DNA:RNA) RNA: GGGAGACCGGAAUUCAGAUUGUCCCAGCAUAUUAAAUCCCGUCGUAGCCACCA DNA 1: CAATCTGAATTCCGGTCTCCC DNA 2: TGGTGGCTACGACGGGATT
output: 0.00331 KA relative to UGCAUGU

src = paper PMC9911399
